# System: Jurkat cells
# assayProtocol: IL-2 secretion assay in Jurkat cells activated with CD3/CD28 T Cell Activator
# Format: cell-based
# measurementConditions: Homo sapiens, Jurkat, 24 h, read-out: IL-2 Secretion (EC50)
pEC50: −log10 of the molar value.
Some molecules, each annotated with its measured pEC50.

CC(C)CNCc1cc(C(=O)Nc2cc(-c3c(F)cc(Cl)cc3C(=O)N3CC(F)(F)C3)cc(C3CC3)n2)c(=O)n(C2CC2)c1	> 7.00

Briefly, pEC50 measured for `C[C@H]1CCCN(Cc2cc(C(=O)Nc3cc(-c4ccc(C#N)cc4-c4nncn4C)cc(C4CC4)n3)c(=O)n(C3CC3)c2)C1` : > 7.00

Briefly, pEC50 measured for `COCCNCc1cc(C(=O)Nc2cc(-c3ccc(C#N)cc3-c3[nH]c(C)nc3C)cc(C3CC3)n2)c(=O)n(C2CC2)c1` : 6.00 to 7.00
